subjectOfTest: Gal(b1-4)GalNAc(a1-3)[Fuc(a1-2)]Gal(b1-4)GlcNAc
testDescription: glycan array binding signal (z-score within array); higher = stronger binding
conditionContext: glycan notation: IUPAC condensed, linker removed
The sample as a whole holds a higher share of the strongest signals than the screen did.
The entries below are paired with their reported glycan array binding signal (z-score).
// keep it numeric: no unit symbol after the value

binder="C-Reactive Protein (Homo sapiens), P02741 (protein) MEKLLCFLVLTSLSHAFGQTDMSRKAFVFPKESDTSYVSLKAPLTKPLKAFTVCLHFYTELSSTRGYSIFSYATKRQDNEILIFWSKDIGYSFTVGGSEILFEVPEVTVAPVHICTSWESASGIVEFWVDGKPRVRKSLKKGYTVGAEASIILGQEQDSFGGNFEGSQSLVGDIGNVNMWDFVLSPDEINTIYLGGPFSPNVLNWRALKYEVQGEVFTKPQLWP" parameter="glycan array binding signal (z-score)" measurednumber=-0.454
binder="GNL (Galanthus nivalis) (protein) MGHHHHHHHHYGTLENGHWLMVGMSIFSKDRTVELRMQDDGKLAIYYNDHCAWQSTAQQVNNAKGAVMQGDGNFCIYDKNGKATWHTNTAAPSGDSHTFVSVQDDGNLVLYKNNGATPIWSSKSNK" parameter="glycan array binding signal (z-score)" measurednumber=-0.257
binder="SP8524D-bot-399-27-399 (Bacteroides ovatus) (protein) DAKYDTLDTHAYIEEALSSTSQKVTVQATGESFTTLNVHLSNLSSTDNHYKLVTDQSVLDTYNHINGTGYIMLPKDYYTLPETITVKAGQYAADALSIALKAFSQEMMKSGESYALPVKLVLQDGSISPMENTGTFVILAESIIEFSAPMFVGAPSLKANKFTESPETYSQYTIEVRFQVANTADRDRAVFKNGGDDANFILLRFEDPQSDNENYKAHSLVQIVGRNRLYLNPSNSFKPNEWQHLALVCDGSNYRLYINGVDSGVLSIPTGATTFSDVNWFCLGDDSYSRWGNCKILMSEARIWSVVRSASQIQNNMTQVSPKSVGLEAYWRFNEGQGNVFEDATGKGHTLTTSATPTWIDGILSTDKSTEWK" parameter="glycan array binding signal (z-score)" measurednumber=0.229

Q: Return the recorded glycan array binding signal (z-score) value; entry: DCIR (Homo sapiens), Q9UMR7 (protein) MTSEITYAEVRFKNEFKSSGINTASSAASKERTAPHKSNTGFPKLLCASLLIFFLLLAISFFIAFVIFFQKYSQLLEKKTTKELVHTTLECVKKNMPVEETAWSCCPKNWKSFSSNCYFISTESASWQDSEKDCARMEAHLLVINTQEEQDFIFQNLQEESAYFVGLSDPEGQRHWQWVDQTPYNESSTFWHPREPSDPNERCVVLNFRKSPKRWGWNDVNCLGPQRSVCEMMKIHL
A: -0.129
